system: HCV replicon cells Huh 9B; assay type: cell-based; conditions: concentration reducing total cell area by 50% relative to DMSO controls; 72 h
We label by threshold. Values of Replicon Assay Value TD50 strictly beneath 20 µM are yes. Values of 20 µM and up are no.

# check: Replicon Assay Value TD50 < 20 µM for O=C(NC1N=C(c2c(Cl)cc(Cl)cc2Cl)c2ccccc2NC1=O)c1cc(Cl)ccc1OCC1CCCO1 (stereo not drawn) [Example 9]
no

Does CO[C@@H](C)COc1ccc(Cl)cc1C(=O)NC1N=C(c2c(Cl)cc(Cl)cc2Cl)c2ccccc2NC1=O (stereo partly drawn) [Example 2] have Replicon Assay Value TD50 strictly under 20 µM?
no

---

Here the recorded pIC50 is given for each entry.
molecular target: Recombinant HCV polymerase (BK strain) (Hepatitis C virus genotype 1b, UniProt P26663); construct: Recombinant HCV polymerase (BK strain) was expressed and purified from E. coli with a 21 amino acid C-terminal deletion; His6; assay: HCV polymerase enzyme assay (radiometric [33P]-UTP incorporation)
Sequence (P26663 2420-2989): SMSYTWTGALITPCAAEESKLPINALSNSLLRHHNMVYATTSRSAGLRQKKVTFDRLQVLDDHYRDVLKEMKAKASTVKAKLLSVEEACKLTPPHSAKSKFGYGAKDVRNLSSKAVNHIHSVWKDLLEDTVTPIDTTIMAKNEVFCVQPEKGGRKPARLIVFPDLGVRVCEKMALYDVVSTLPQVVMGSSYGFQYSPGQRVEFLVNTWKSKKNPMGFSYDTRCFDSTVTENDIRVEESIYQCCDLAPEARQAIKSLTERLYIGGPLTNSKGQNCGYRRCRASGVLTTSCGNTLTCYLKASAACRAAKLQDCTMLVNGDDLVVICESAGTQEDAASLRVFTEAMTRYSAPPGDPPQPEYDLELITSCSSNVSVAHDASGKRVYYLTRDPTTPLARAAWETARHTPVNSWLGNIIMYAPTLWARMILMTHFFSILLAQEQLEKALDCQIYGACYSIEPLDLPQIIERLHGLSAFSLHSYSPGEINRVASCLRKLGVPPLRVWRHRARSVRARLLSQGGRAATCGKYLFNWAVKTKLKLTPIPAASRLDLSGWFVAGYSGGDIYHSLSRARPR
Convention used: pIC50 is expressed as -log10 of the molar concentration.

Name the recorded pIC50 of the item CCOCCCOc1ncc(F)cc1C(=O)NC1N=C(c2c(Cl)cc(Cl)cc2Cl)c2ccccc2NC1=O (stereo not shown) [Example 39] in your answer.
7.02

Output measured pIC50 for this item: CCC(=O)NCCCOc1ccc(Cl)cc1C(=O)NC1N=C(c2c(Cl)cc(Cl)cc2Cl)c2ccccc2NC1=O (stereo not shown) [Example 26]
6.19

Determine its reported pIC50: CCN(CCOC)c1ncc(F)cc1C(=O)NC1N=C(c2c(Cl)cc(Cl)cc2Cl)c2ccccc2NC1=O (stereo not shown) [Example 43]
6.69

Next:
Hello, please tell me recorded pIC50 for this one: CCCCCOCCOc1ccc(Cl)cc1C(=O)NC1N=C(c2c(Cl)cc(Cl)cc2Cl)c2ccccc2NC1=O (stereo not shown) [Example 7]
6.18

Note down pIC50 recorded for COCCN(C)c1ncc(F)cc1C(=O)N[C@@H]1N=C(c2c(Cl)cc(Cl)cc2Cl)c2ccccc2NC1=O [Example 68]
5.29

Entry CC(C)COCCOc1ccc(Cl)cc1C(=O)NC1N=C(c2c(Cl)cc(Cl)cc2Cl)c2ccccc2NC1=O (stereo not shown) [Example 6] needs its pIC50 filled in; supply it.
6.15

---

test system: HCV replicon cells Huh 9B; type: cell-based; details: concentration reducing total cell area by 50% relative to DMSO controls; 72 h
Measured Replicon Assay Value TD50 of individual entries
Write down the numeric answer in µM and omit the unit.

Specify reported Replicon Assay Value TD50 for the compound shown: COCCOc1ccc(Cl)cc1C(=O)NC1N=C(c2c(Cl)cc(Cl)cc2Cl)c2ccccc2NC1=O (stereo not shown)
19.834

Give me measured Replicon Assay Value TD50, please, for this compound: COCCOc1nccc(C)c1C(=O)NC1N=C(c2c(Cl)cc(Cl)cc2Cl)c2ccccc2NC1=O (stereo not shown)
24.518

Specify Replicon Assay Value TD50 for CC(=O)NCCOc1ccc(Cl)cc1C(=O)NC1N=C(c2c(Cl)cc(Cl)cc2Cl)c2ccccc2NC1=O (stereo not shown) and stop.
13.188

Next:
Identify measured Replicon Assay Value TD50 corresponding to "COCCOc1ncc(F)cc1C(=O)N[C@@H]1N=C(c2c(Cl)cc(Cl)cc2Cl)c2ccccc2NC1=O"
23.452

---

Listed here: items and their measured pIC50.
test system: HCV replicon cells Huh 9B; assay: HCV replicon assay (luciferase); format: cell-based; details: Hepatitis C virus, reduction of replicon level by 50% vs untreated cell control, 72 h
# reply with the number alone; pIC50 is -log10 of concentration in mol/L

Find the measured pIC50 of CCOCCOCCOc1ccc(Cl)cc1C(=O)NC1N=C(c2c(Cl)cc(Cl)cc2Cl)c2ccccc2NC1=O (centres unmarked) [Example 8] and report it.
5.87

Give pIC50 for the following compound: CCC(=O)NCCOc1ccc(Cl)cc1C(=O)NC1N=C(c2c(Cl)cc(Cl)cc2Cl)c2ccccc2NC1=O (centres unmarked) [Example 22]
6.02

Give the reported value of pIC50 for this record: COCCOc1ccc(Cl)cc1C(=O)NC1N=C(c2c(Cl)cc(Cl)cc2Cl)c2ccccc2NC1=O (centres unmarked) [Example 14]
7.08

---

system: HCV replicon cells Huh 9B; assay type: cell-based; conditions: concentration reducing total cell area by 50% relative to DMSO controls; 72 h
Reported Replicon Assay Value TD50 is given for each of the following compounds.
Return type: number; implicit unit µM.

Below, each entry is followed by its recorded Replicon Assay Value TD50 result.
Look up Replicon Assay Value TD50 of "COCCOc1ncc(F)cc1C(=O)N[C@H]1N=C(c2c(Cl)cc(Cl)cc2Cl)c2ccccc2NC1=O" and report it.
17.386

Name the recorded Replicon Assay Value TD50 of the compound listed here: CCOCCOc1ncc(F)cc1C(=O)NC1N=C(c2c(Cl)cc(Cl)cc2Cl)c2ccccc2NC1=O (stereo not shown)
11.884

Using known records, supply Replicon Assay Value TD50 for COCCOc1ccc(Cl)cc1C(=O)NC1N=C(c2c(Cl)cc(Cl)cc2CN2CCOCC2)c2ccccc2NC1=O (stereo not shown)
11.02

In one line, give reported Replicon Assay Value TD50 of the entry COCCOc1ccc(C(C)=O)cc1C(=O)NC1N=C(c2c(Cl)cc(Cl)cc2Cl)c2ccccc2NC1=O (stereo not shown) .
15.802

Note Replicon Assay Value TD50 for the compound shown: "CCOCCOc1ncc(F)cc1C(=O)N[C@H]1N=C(c2c(Cl)cc(Cl)cc2Cl)c2ccccc2NC1=O"
10.854

Provide measured Replicon Assay Value TD50 value, entry: CCC(=O)NCCOc1ccc(Cl)cc1C(=O)NC1N=C(c2c(Cl)cc(Cl)cc2Cl)c2ccccc2NC1=O (stereo not shown)
12.304

Tell me its Replicon Assay Value TD50 given CC(C)COCCOc1ccc(Cl)cc1C(=O)NC1N=C(c2c(Cl)cc(Cl)cc2Cl)c2ccccc2NC1=O (stereo not shown) as the entry.
10.604

Report Replicon Assay Value TD50, nothing else, for this compound: "COCCN(C)c1ncc(F)cc1C(=O)N[C@@H]1N=C(c2c(Cl)cc(Cl)cc2Cl)c2ccccc2NC1=O"
16.618

Supply measured Replicon Assay Value TD50 of CS(=O)(=O)NCCOc1ccc(Cl)cc1C(=O)NC1N=C(c2c(Cl)cc(Cl)cc2Cl)c2ccccc2NC1=O (stereo not shown) in your reply.
12.744

Hello, please tell me recorded Replicon Assay Value TD50 for this one: COCCCOc1ncc(F)cc1C(=O)NC1N=C(c2c(Cl)cc(Cl)cc2Cl)c2ccccc2NC1=O (stereo not shown)
22.269

Next:
Read the entry CN(C)CCCOc1ccc(Cl)cc1C(=O)NC1N=C(c2c(Cl)cc(Cl)cc2Cl)c2ccccc2NC1=O (stereo not shown) and write its reported Replicon Assay Value TD50.
4.253

Provide measured Replicon Assay Value TD50 value, entry: COCCOCCOc1ncc(F)cc1C(=O)NC1N=C(c2c(Cl)cc(Cl)cc2Cl)c2ccccc2NC1=O (stereo not shown)
23.09

Specify measured Replicon Assay Value TD50 for CCC(=O)NCCCOc1ccc(Cl)cc1C(=O)NC1N=C(c2c(Cl)cc(Cl)cc2Cl)c2ccccc2NC1=O (stereo not shown) .
12.354

Kindly indicate its recorded Replicon Assay Value TD50. Item: CO[C@@H](C)COc1ncc(F)cc1C(=O)NC1N=C(c2c(Cl)cc(Cl)cc2Cl)c2ccccc2NC1=O (stereo partly shown)
24.614

Please give the documented Replicon Assay Value TD50 of CS(=O)(=O)NCCCOc1ccc(Cl)cc1C(=O)NC1N=C(c2c(Cl)cc(Cl)cc2Cl)c2ccccc2NC1=O (stereo not shown)
13.62

For the compound CN(C)CCOCCOc1ccc(Cl)cc1C(=O)NC1N=C(c2c(Cl)cc(Cl)cc2Cl)c2ccccc2NC1=O (stereo not shown) , report Replicon Assay Value TD50.
6.754

---

target: Recombinant HCV polymerase (BK strain) (Hepatitis C virus genotype 1b, UniProt P26663); construct: Recombinant HCV polymerase (BK strain) was expressed and purified from E. coli with a 21 amino acid C-terminal deletion; His6; experiment: HCV polymerase enzyme assay (radiometric [33P]-UTP incorporation)
measured-property: pIC50
// pIC50 is dimensionless: -log10 of concentration (M)

Previously resolved entries follow.
# return recorded pIC50 for entry CS(=O)(=O)NCCOc1ccc(Cl)cc1C(=O)NC1N=C(c2c(Cl)cc(Cl)cc2Cl)c2ccccc2NC1=O (stereo not shown)
6.02

Give the value of pIC50 reported for the following: CCS(=O)(=O)NCCCOc1ccc(Cl)cc1C(=O)NC1N=C(c2c(Cl)cc(Cl)cc2Cl)c2ccccc2NC1=O (stereo not shown)
6.07

Respond only with pIC50 recorded for COCCOc1ccc(Cl)cc1C(=O)NC1N=C(c2c(Cl)cc(Cl)cc2CN2CCOCC2)c2ccccc2NC1=O (stereo not shown)
6.08

# return recorded pIC50 for input "COCCOc1ncc(F)cc1C(=O)N[C@@H]1N=C(c2c(Cl)cc(Cl)cc2Cl)c2ccccc2NC1=O"
5.68

Dear colleague, please send me the reported pIC50 for COCCN(c1ncc(F)cc1C(=O)NC1N=C(c2c(Cl)cc(Cl)cc2Cl)c2ccccc2NC1=O)C(C)C (stereo not shown) when you can.
5.88

***
Look up and report measured pIC50 for this entry: COCCOc1ccc(Cl)cc1C(=O)NC1N=C(c2c(Cl)cc(Cl)cc2Cl)c2ccccc2NC1=O (stereo not shown)
6.81

Identify measured pIC50 corresponding to "COCCN(C)c1ncc(F)cc1C(=O)N[C@H]1N=C(c2c(Cl)cc(Cl)cc2Cl)c2ccccc2NC1=O"
7.44

Respond only with pIC50 recorded for CN(C)CCOCCOc1ccc(Cl)cc1C(=O)NC1N=C(c2c(Cl)cc(Cl)cc2Cl)c2ccccc2NC1=O (stereo not shown)
5.77

Consider the compound COCCN(C)c1ncc(F)cc1C(=O)NC1N=C(c2c(Cl)cc(Cl)cc2Cl)c2ccccc2NC1=O (stereo not shown) . State its measured pIC50.
6.89

Answer with reported pIC50 of COCCOc1ncc(Br)cc1C(=O)NC1N=C(c2c(Cl)cc(Cl)cc2Cl)c2ccccc2NC1=O (stereo not shown)
6.58
